Assay: Amyloid fibril formation by thioflavin T (ThT) fluorescence
Assay type: physicochemical
Settings: buffers pH 3 to pH 10, 37° C., fluorescence at 485 nm
Metric: pH dependent amyloid fibril formation (ThT staining)

INSERT INTO assay_data (substance, value_reported) VALUES
  ('LKVKVL [HspB5 89-94, hexamer of HspB5 residues 89-94]', 'bound ThT only at pH 10'),
  ('NKGAII [A beta A4 27-32]', 'bound ThT only at pH 10');
